# Tested on: Staphylococcus aureus
# Assay protocol: Antibacterial activity against methicillin-resistant Staphylococcus aureus USA300 after 20 hrs by microdilution method
# Assay type: functional
# Condition context: USA300, 20 h
Property: MIC

Please report the recorded MIC for CS(=O)(=O)O.CS(=O)(=O)O.c1ccc(C(c2c[nH]c3cc(C4=NCCN4)ccc23)c2c[nH]c3cc(C4=NCCN4)ccc23)cc1 .
25 µM

Please report the recorded MIC for CCCC(CCC)(c1c[nH]c2cc(C3=NCCN3)ccc12)c1c[nH]c2cc(C3=NCCN3)ccc12.CS(=O)(=O)O.CS(=O)(=O)O .
1.6 to 3.1 µM

Please report the recorded MIC for CS(=O)(=O)O.CS(=O)(=O)O.NCc1ccc2c(C3(c4c[nH]c5cc(CN)ccc45)CCCCC3)c[nH]c2c1 .
6.2 to 12.5 µM
